- measured_on: RORγ ligand-binding domain (Homo sapiens)
- Construct: Gal4 (galactose-responsive transcription factor); expressed in transfected cells; host or cells: HEK293, transient co-transfection
- Sequence (P51449 269-508 limits assumed): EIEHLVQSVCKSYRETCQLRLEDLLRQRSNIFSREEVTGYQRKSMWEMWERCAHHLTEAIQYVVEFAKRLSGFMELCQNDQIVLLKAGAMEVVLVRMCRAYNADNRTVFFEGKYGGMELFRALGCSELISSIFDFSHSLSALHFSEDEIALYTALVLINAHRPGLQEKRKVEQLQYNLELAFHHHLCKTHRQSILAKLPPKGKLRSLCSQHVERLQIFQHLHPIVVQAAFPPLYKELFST
- experimental_details: RORγ Reporter Assay (Gal4)
- Assay type: cell-based
- recorded_conditions: HEK293 cells, luciferase reporter, 24 h incubation, absolute IC50; read-out: IC50
- Method: The HEK293 cell line is co-transfected transiently with two plasmids, one with the RORγ ligand-binding domain fused to galactose-responsive transcription factor (Ga14), and the other with the luciferase reporter gene and Gal binding sites (UAS). This construction allows to determine the RORT activity in a cellular system through the measurement of luminescence. A suspension of RORγ reporter cells was dispensed into plates and cultured 2 h at 37° C. and 5% CO2. […]
test_readout: IC50 (nM)
Number only, in nM; omit the unit.

Reference set, count: 5
compound: CC(C)N(Cc1ccc(C(F)(F)F)cc1)c1ncnc2c1c(F)cn2C[C@@H]1CCN(CC(N)=O)C[C@H]1O (racemic) [Example P6-19]
measured_on: RORγ ligand-binding domain (Homo sapiens)
result_units: nM
IC50: 9.8

compound: NC(=O)CN1CC[C@@H](Cn2cc(F)c3c(N(Cc4ccc(C(F)(F)F)cc4)C4CC4)ncnc32)[C@H](O)C1 (single isomer, unassigned) [Example P6-14-1]
measured_on: RORγ ligand-binding domain (Homo sapiens)
result_units: nM
IC50: 3.8

compound: CCN(Cc1ccc(-n2cccn2)cc1F)c1ncnc2c1ccn2C[C@@H]1CCN(CC(N)=O)C[C@H]1O (relative stereo) [P6-36″]
measured_on: RORγ ligand-binding domain (Homo sapiens)
result_units: nM
IC50: 14

compound: NC(=O)CN1CC[C@](O)(Cn2ccc3c(N(Cc4ccc(-n5cccn5)cc4)C4CC4)ncnc32)[C@@H](O)C1 (relative stereo) [R5-2″]
measured_on: RORγ ligand-binding domain (Homo sapiens)
result_units: nM
IC50: 8.1

compound: NC(=O)CN1CCC(Cn2ccc3c(N(Cc4ccc(C(F)(F)F)cc4)C4CC4)ncnc32)C(F)(F)C1 (single isomer, unassigned) [Example K8-1-2]
measured_on: RORγ ligand-binding domain (Homo sapiens)
result_units: nM
IC50: 4

Lab note: CCN(Cc1ccc(C(F)(F)F)cc1)c1ncnc2c1ccn2C[C@@H]1CCN(CC(N)=O)C[C@H]1O (single isomer, unassigned) [Example P6-24-2] gave IC50 of 9.1

Lab note: CCN(Cc1ccc(C(F)(F)F)cc1)c1ncnc2c1ccn2C[C@@H]1CCN(CC(N)=O)C[C@H]1O (single isomer, unassigned) [Example P6-24-1] gave IC50 of 4.9

Lab note: NC(=O)CN1CC[C@@H](Cn2ccc3c(N(Cc4ccc(C(F)(F)F)cc4)C4CC4)ncnc32)[C@H](F)C1 (single isomer, unassigned) [Example K8-2-1] gave IC50 of 6.1

Lab note: CCN(Cc1ccc(C(F)(F)F)c(F)c1)c1ncnc2c1ccn2C[C@@H]1CCN(CC(N)=O)C[C@H]1O (relative stereo) [P6-31″] gave IC50 of 1.9

Lab note: NC(=O)CN1CC[C@@H](Cn2cc(F)c3c(N(Cc4ccc(C(F)(F)F)cn4)C4CC4)ncnc32)[C@H](O)C1 (racemic) [Example P6-18] gave IC50 of 4.6

Lab note: CC(C)N(Cc1ccc(C(F)(F)F)cc1)c1ncnc2c1ccn2C[C@@H]1CCN(CC(N)=O)C[C@H]1O (single isomer, unassigned) [Example P6-25-1] gave IC50 of 12
